Measured values drawn from patent US20240270826A1 for this set.

Catalogue of Kd values
Target: T1, SARS-CoV-2 spike trimer S (Wuhan, SmT1) (SARS-CoV-2 Wuhan)
T1 construct: extracellular domain
Assay: SPR, antigen on chip
TEST READOUT: Kd (nM)

NRCoV2-15 VHH (VHH) VHH: EVQLVSSGGGLVEAGGSLRLSCIASGSTSGRNTMGWFRQAPGKQREWVAIVSTSGATNYAGSVKGRFTLSRDNAKNAVYLQMNNLKPEDTAVYYCYAAYGGGGDYWGQGTQVTVSS    0.313
NRCoV2-SR01 VHH (VHH) VHH: EVQLVQSGGGSVQAGGSLRLSCVASGFTFDNYAIGWFRQAPGKEREGVSCISGNGGVTIYADSVKGRFTISRDNAKNLVYLQMNSLKPEDTAVYYCAATGIRSTWSVYGCSRLAGPYDYWGQGTQVTVSS    0.445
NRCoV2-S2G3 VHH (VHH) VHH: QVQLVQSGGGSVQAGGSLRLSCAASGSTFGIFLMGWRRQAPGKQRELVAHITSGGATNYADSVKGRFTISRDNAKNTVYLQMNSLEPEDTAVYYCYTTKRDDASVYWGQGTQVTVSS    3.74
NRCoV2-20 VHH (VHH) VHH: EVQLQQSGGGLVQPGGSLRLSCAASGRTFSNYVVGWFRQAPQAPGKDHEFVAVISGSDTETYYADSVKGRFTISRDNAKNTVYLQMNSLKPEDTAVYYCAADRGMSYYYTRATEYYYWGQGTQVTVSS    6.73
